# Test system: MV4;11 cells
# assayRemarks: Cell viability assay (CellTiter-Glo) in MV4;11 cells, alone or with gilteritinib
# Assay type: cell-based
# statedConditions: Homo sapiens, MV4-11, 72 h, MV4;11 cells, with 10 nM gilteritinib, 3 days, CellTiter-Glo; read-out: MV4; 11 IC50 gilteritinib
Quick reference for pIC50 among some compounds
Remember, pIC50 is on a log scale: it is -log10 of the molar concentration.

O=C1CCC(N2C(=O)c3ccc(NCCCCCC(=O)N4CCC(c5ccccn5)CC4)cc3C2=O)C(=O)N1 (stereo not shown) : 8.70

pIC50 measured on O=C1CCC(N2C(=O)c3ccc(NCCCCCC(=O)N4CCC(N5CCC(c6cnc7ccccc7n6)C5)CC4)cc3C2=O)C(=O)N1 (stereo not shown) = 5.56

pIC50 measured on O=C(CCCC(=O)N1CCC(n2cc(-c3cnc4cccc(Br)c4n3)cn2)CC1)NCc1ccc2c(c1)CN(C1CCC(=O)NC1=O)C2=O (stereo not shown) = 7.36

pIC50 measured on O=C1CCC(N2C(=O)c3ccc(NCCCCCC(=O)N4CCC(c5ncccn5)CC4)cc3C2=O)C(=O)N1 (stereo not shown) = 8.08

pIC50 measured on O=C1CCC(N2Cc3cc(CNC(=O)C(F)(F)c4cccc(N5CCC(n6cc(-c7cnc8cccc(Br)c8n7)cn6)CC5)c4)ccc3C2=O)C(=O)N1 (stereo not shown) = 9.30

pIC50 measured on O=C1CCC(N2C(=O)c3ccc(NCCCCCC(=O)N4CCC(n5cc(N6CCC6)cn5)CC4)cc3C2=O)C(=O)N1 (stereo not shown) = 5.07

* * *

# System: MV4;11 cells
# assayRemarks: Cell viability assay (CellTiter-Glo) in MV4;11 cells, alone or with gilteritinib
# Type: cell-based
# statedConditions: Homo sapiens, MV4-11, 72 h, MV4;11 cells, compound with gilteritinib 10 nM, three days, CellTiter-Glo; read-out: MV4; 11 IC50 gilteritinib
measurementType: IC50

IC50 measured on CN1CCC(c2ccc3nc(-c4cnn([C@H]5C[C@@H](CCCNc6ccc7c(c6)C(=O)N(C6CCC(=O)NC6=O)C7=O)C5)c4)cnc3c2)CC1 (some centres unmarked) [GS-432] = 10 to 100 nM

IC50 measured on Cc1nc(-c2cn([C@H]3C[C@H](CCc4ccc5c(c4)C(=O)N(C4CCC(=O)NC4=O)C5=O)C3)nc2C2CC2)ccc1F (some centres unmarked) [GS-629] = 100 to 1000 nM

IC50 measured on O=C1CCC(N2C(=O)c3ccc(NCCCCCCn4cc(-c5nc6ccccc6nc5C(F)(F)F)cn4)cc3C2=O)C(=O)N1 (centres unmarked) [GS-522] = 10 to 100 nM

* * *

# System: MOLM-13 cells
# assayRemarks: Cell viability assay (CellTiter-Glo) in MOLM-13 cells, alone or with gilteritinib
# Format: cell-based
# statedConditions: Homo sapiens, MOLM-13, 72 h, MOLM-13 cells, compound alone (without gilteritinib), three days, CellTiter-Glo; read-out: MOLM-13 IC50
pIC50: −log10 of the molar value.
Quick reference for pIC50 among some compounds

Cc1ccnc(-c2cnn([C@H]3C[C@H](CCCNc4ccc5c(c4)C(=O)N(C4CCC(=O)NC4=O)C5=O)C3)c2)c1 (some centres unmarked) : 6.00 to 7.00
Cc1cn(CCCCCCNc2ccc3c(c2)C(=O)N(C2CCC(=O)NC2=O)C3=O)nc1-c1cnc2ccccc2n1 (centres unmarked) : < 6.00
O=C1CCC(N2C(=O)c3ccc(NCCC[C@H]4C[C@H](n5cc(-c6cnc7ccc(N8C[C@@H]9C[C@H]8CN9)cc7n6)cn5)C4)cc3C2=O)C(=O)N1 (some centres unmarked) : < 6.00
O=C1CCC(N2C(=O)c3ccc(NCCCc4cccc(N5CCC(n6cc(-c7cnc8ccccc8n7)cn6)CC5)c4)cc3C2=O)C(=O)N1 (centres unmarked) : > 8.00
O=C1CCC(N2C(=O)c3ccc(NC[C@H]4C[C@@H](n5cc(-c6cnc7ccccc7n6)cn5)C4)cc3C2=O)C(=O)N1 (some centres unmarked) : < 6.00

pIC50 measured on CC1CCCCC1c1cn([C@H]2C[C@H](CNc3ccc4c(c3)C(=O)N(C3CCC(=O)NC3=O)C4=O)C2)nc1C1CC1 (some centres unmarked) = 7.00 to 8.00

pIC50 measured on O=C1CCC(N2C(=O)c3ccc(NCCC4CCC(n5cc(-c6cnc7ccccc7n6)cn5)CC4)cc3C2=O)C(=O)N1 (centres unmarked) = < 6.00

pIC50 measured on O=C1CCC(N2C(=O)c3ccc(NCCCN4CCCC(N5CCN(c6ccccn6)CC5)C4)cc3C2=O)C(=O)N1 (centres unmarked) = < 6.00

pIC50 measured on O=C1CCC(N2C(=O)c3ccc(NC[C@H]4C[C@H](n5cc(-c6ncccc6N6CCNCC6)c(C6CC6)n5)C4)cc3C2=O)C(=O)N1 (some centres unmarked) = 7.00 to 8.00

pIC50 measured on O=C1CCC(N2C(=O)c3ccc(NCCC[C@H]4C[C@H](n5cc(-c6ncccc6Cl)c(C6CC6)n5)C4)cc3C2=O)C(=O)N1 (some centres unmarked) = 6.00 to 7.00

pIC50 measured on O=C1CCC(N2C(=O)c3ccc(NCCC[C@H]4C[C@H](n5cc(-c6cnc7ccc(F)cc7n6)cn5)C4)cc3C2=O)C(=O)N1 (some centres unmarked) = 6.00 to 7.00

pIC50 measured on O=C1CCC(N2Cc3c(Nc4ccnc(Nc5cccc(C(=O)N6CCC(n7cc(-c8cnc9ccccc9n8)cn7)CC6)c5)n4)cccc3C2=O)C(=O)N1 (centres unmarked) = < 6.00

pIC50 measured on Cc1cccc(-c2cn([C@H]3C[C@H](CNc4ccc5c(c4)C(=O)N(C4CCC(=O)NC4=O)C5=O)C3)nc2C2CC2)n1 (some centres unmarked) = 7.00 to 8.00

pIC50 measured on Cc1cccc(-c2cn([C@H]3C[C@H](CNc4ccc5c(c4)C(=O)N(C4CCC(=O)NC4=O)C5=O)C3)nc2C(F)F)n1 (some centres unmarked) = 7.00 to 8.00

pIC50 measured on O=C1CCC(N2C(=O)c3ccc(NCCOCCC(=O)N4CCC(n5cc(-c6cnc7ccccc7n6)cn5)CC4)cc3C2=O)C(=O)N1 (centres unmarked) = < 6.00

pIC50 measured on O=C1CCC(N2C(=O)c3ccc(NC[C@H]4C[C@@H](n5cc(-c6cnc7ccc(N8CCNCC8)cc7n6)cn5)C4)cc3C2=O)C(=O)N1 (some centres unmarked) = < 6.00
